Target: Protein kinase C theta type (Homo sapiens) (UniProt Q04759);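 note: reported figure is the mean percent inhibition of PKC-theta, from the GSK PKIS screen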
Sequence (Q04759 whole entry, looked up): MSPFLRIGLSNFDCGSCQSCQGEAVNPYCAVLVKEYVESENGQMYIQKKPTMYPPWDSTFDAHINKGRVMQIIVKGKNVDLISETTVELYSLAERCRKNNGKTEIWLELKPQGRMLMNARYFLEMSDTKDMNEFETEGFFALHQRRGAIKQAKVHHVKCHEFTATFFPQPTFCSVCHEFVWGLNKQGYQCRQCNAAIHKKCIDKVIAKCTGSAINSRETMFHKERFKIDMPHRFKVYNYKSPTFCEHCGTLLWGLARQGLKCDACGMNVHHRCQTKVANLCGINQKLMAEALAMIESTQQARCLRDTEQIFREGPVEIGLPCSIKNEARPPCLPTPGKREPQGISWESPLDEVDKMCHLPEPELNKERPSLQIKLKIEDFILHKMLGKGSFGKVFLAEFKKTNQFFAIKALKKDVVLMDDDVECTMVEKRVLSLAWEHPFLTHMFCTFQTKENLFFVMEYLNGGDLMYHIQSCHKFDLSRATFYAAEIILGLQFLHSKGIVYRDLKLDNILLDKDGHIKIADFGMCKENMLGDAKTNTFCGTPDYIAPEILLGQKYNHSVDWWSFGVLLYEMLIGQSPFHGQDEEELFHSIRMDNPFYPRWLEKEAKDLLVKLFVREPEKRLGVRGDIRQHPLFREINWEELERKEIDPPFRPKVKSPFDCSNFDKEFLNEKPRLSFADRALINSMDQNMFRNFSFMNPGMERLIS
Conditions: at 0.1 µM
inhibition listing for selected compounds.
observationType: inhibition (%)

>  <compoundStructure>
Fc1ccc(-c2ncn(C3CCNCC3)c2-c2ccnc(Oc3ccccc3)n2)cc1

>  <observationType>
inhibition

>  <endpointUnit>
%

>  <recordedNumber>
1.21

$$$$
>  <compoundStructure>
CCn1c(-c2nonc2N)nc2c(C#CC(C)(C)O)nc(O[C@@H](CN)c3ccccc3)cc21

>  <observationType>
inhibition

>  <endpointUnit>
%

>  <recordedNumber>
73.5

$$$$
>  <compoundStructure>
NC(=O)c1sc(-n2cnc3cc(C(F)(F)F)ccc32)cc1OCc1ccccc1Br

>  <observationType>
inhibition

>  <endpointUnit>
%

>  <recordedNumber>
0.18

$$$$
>  <compoundStructure>
Nc1nonc1-c1nc2cnccc2n1C1CCCCC1

>  <observationType>
inhibition

>  <endpointUnit>
%

>  <recordedNumber>
10.3

$$$$
>  <compoundStructure>
NS(=O)(=O)c1ccc(N/C=C2\C(=O)Nc3ccc4ncsc4c32)cc1

>  <observationType>
inhibition

>  <endpointUnit>
%

>  <recordedNumber>
3.02

$$$$
>  <compoundStructure>
COc1cc(C=NNc2ncnc3c2cnn3Cc2ccccc2)ccc1O

>  <observationType>
inhibition

>  <endpointUnit>
%

>  <recordedNumber>
-1.05

$$$$
>  <compoundStructure>
NS(=O)(=O)c1ccc(-c2ccc3c(NC(=O)C4CC4)n[nH]c3c2)cc1

>  <observationType>
inhibition

>  <endpointUnit>
%

>  <recordedNumber>
1.13

$$$$
>  <compoundStructure>
CCn1c(-c2nonc2N)nc2c(C#CC(C)(C)O)ncc(OC[C@@H]3CCCN3)c21

>  <observationType>
inhibition

>  <endpointUnit>
%

>  <recordedNumber>
30

$$$$
>  <compoundStructure>
COc1cccc(COc2cc(-n3cnc4ccccc43)sc2C(N)=O)c1

>  <observationType>
inhibition

>  <endpointUnit>
%

>  <recordedNumber>
1.23

$$$$
>  <compoundStructure>
COc1cccc(-n2ncc3c(N/N=C/c4ccncc4)ncnc32)c1

>  <observationType>
inhibition

>  <endpointUnit>
%

>  <recordedNumber>
2.97

$$$$
